tested on: 616215-338-R-J1-PDC tumor spheroids, viability; assay: Anticancer human tumor 616215-338-R-J1-PDC patient-derived colon adenocarcinoma cell line growth inhibition [GQUAD]; details: second compound 0.316 µM; first compound 1 µM; spheroids with HUVEC and MSC; active means viability on the fitted dose curve at most 10% of control; inactive means the rest;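 further: spheroids exposed to agents for 7 days before readout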
Labels: active, inactive

>>> category_label("COc1ccc([C@@H](O)c2cc(-c3ncnc4cc(N5CCOCC5)ccc34)c(F)cc2Cl)nn1 + CN(C)c1ccc(Nc2c3ccc(NC(=O)CCN4CCCC4)cc3nc3cc(NC(=O)CCN4CCCC4)ccc23)cc1")
"inactive"
>>> category_label("O=C(NO)c1cnc(N2CCN(S(=O)(=O)c3ccc4ccccc4c3)CC2)nc1 + Cc1[nH]c2ccc(F)cc2c1-c1nc2c3cccnc3c3ncccc3c2[nH]1")
"active"
>>> category_label("COc1cccc2c1C(=O)c1c(O)c3c(c(O)c1C2=O)CC(O)(C(=O)CO)CC3OC1CC(N)C(O)C(C)O1 (stereo not drawn) + CN(C)c1ccc(Nc2c3ccc(NC(=O)CCN4CCCC4)cc3nc3cc(NC(=O)CCN4CCCC4)ccc23)cc1")
"inactive"
